Please go through the items and note down their inhibition of growth at 10 µM.
System: MOLM-13
Assay: Antiproliferative activity against human MOLM-13 cells assessed as cell growth inhibition at 10 uM incubated for 48 hrs by CCK8 assay relative to control
Type: functional
Conditions: read-out: GI
Your answer is read as %, so omit the unit and give the number.

// field: inhibition of growth at 10 µM; key: COc1ccc2c(c1OC)C(=O)O[C@@H]2[C@H]1c2c(c(C3CC4CCC3C4)c3c(c2OC)OCO3)CCN1C(=O)OC(C)(C)C (stereo partly drawn) ; value = 48.6

The molecule listed as COc1ccc2c(c1OC)C(=O)O[C@@H]2[C@H]1c2c(c(CC3CCCC3)c3c(c2OC)OCO3)CCN1C(=O)OC(C)(C)C shows inhibition of growth at 10 µM equal to 51.3

inhibition of growth at 10 µM reading for CCC(C)Cc1c2c(c(OC)c3c1OCO3)[C@H]([C@H]1OC(=O)c3c1ccc(OC)c3OC)N(C(=O)OC(C)(C)C)CC2 (stereo partly drawn) : 51.2

The origin of these recorded values is ChEMBL document CHEMBL5357072.
